The reader will find reported inhibition at 7 g/ha values listed item by item below.
System: velvetleaf (Abutilon theophrasti MEDIC.)
ASSAY SUMMARY: Test Example 1, foliar treatment in upland pots
Format: in vivo
MEASUREMENT CONDITIONS: 20th to 22nd day after application, visual, read-out: Growth inhibition rate (%) Velvetleaf
OBSERVED PROPERTY: inhibition at 7 g/ha (%)

>>> measurement("CCn1nc(C)c(C(=O)c2ccc(S(C)(=O)=O)c(OCCOC)c2C)c1O")
50
>>> measurement("COCCOc1c(S(C)(=O)=O)ccc(C(=O)c2cnn(C(C)C)c2O)c1C")
80
>>> measurement("COCCOc1c(S(C)(=O)=O)ccc(C(=O)c2cnn(C(C)C)c2OC(C)OC(=O)OC)c1C (stereo not shown)")
100
>>> measurement("COCCOc1c(S(C)(=O)=O)ccc(C(=O)c2c(C)nn(C(C)C)c2O)c1C")
60
